Just for reference, ChEMBL document CHEMBL1131900 is where these values come from.

target: 5-hydroxytryptamine receptor 1D (Homo sapiens); test: Maximum stimulation of [35S]GTP gamma-S binding expressed relative to the maximal effect produced by 5-hydroxytryptamine 1D receptor; assay type: functional
Recorded metric: Activity (%)

The examples below pair each entry with its known result.
CN(Cc1ccccc1)CC1(O)CCN(CCCc2c[nH]c3ccc(-n4cnnc4)cc23)CC1    91
CN(CC1CCCCC1)CC1(O)CCN(CCCc2c[nH]c3ccc(-n4cnnc4)cc23)CC1    69
Cc1ccccc1CN(C)CC1(O)CCN(CCCc2c[nH]c3ccc(-n4cnnc4)cc23)CC1    90
CN(CC1CC1)CC1(O)CCN(CCCc2c[nH]c3ccc(-n4cnnc4)cc23)CC1    79

I: CC(C)CN(C)CC1(O)CCN(CCCc2c[nH]c3ccc(-n4cnnc4)cc23)CC1
II: CN(CC(C)(C)C)CC1(O)CCN(CCCc2c[nH]c3ccc(-n4cnnc4)cc23)CC1
INPUT: Lower value of Activity belongs to which: I or II ? To answer, give the label that identifies your chosen option.
OUTPUT: II
(II: 60%, I: 95%)

---

target: 5-hydroxytryptamine receptor 1D (Homo sapiens, UniProt P28221); assay: Measurement of agonist-induced [35S]-GTP gamma-S binding in CHO cells stably transfected with 5-hydroxytryptamine 1D receptor; format: functional, cell-based
Sequence (P28221 whole entry): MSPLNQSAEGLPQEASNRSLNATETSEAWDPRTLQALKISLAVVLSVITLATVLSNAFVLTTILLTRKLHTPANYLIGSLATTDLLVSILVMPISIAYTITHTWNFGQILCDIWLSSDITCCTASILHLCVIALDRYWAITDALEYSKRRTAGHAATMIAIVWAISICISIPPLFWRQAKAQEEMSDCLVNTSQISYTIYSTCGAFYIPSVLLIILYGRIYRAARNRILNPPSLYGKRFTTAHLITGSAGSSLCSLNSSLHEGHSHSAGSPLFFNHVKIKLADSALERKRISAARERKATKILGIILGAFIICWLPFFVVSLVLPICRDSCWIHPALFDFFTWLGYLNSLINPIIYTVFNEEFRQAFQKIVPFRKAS
Recorded metric: ED50 (nM)

CN(CC(C)(C)C)CC1(O)CCN(CCCc2c[nH]c3ccc(-n4cnnc4)cc23)CC1    1.6

a: OC1(CNCc2ccccc2)CCN(CCCc2c[nH]c3ccc(-n4cnnc4)cc23)CC1
b: CC(=O)Nc1ccc(CNCC2(O)CCN(CCCc3c[nH]c4ccc(-n5cnnc5)cc34)CC2)cc1
c: CC(C)(C)OC(=O)NCC1(O)CCN(CCCc2c[nH]c3ccc(-n4cnnc4)cc23)CC1
INPUT: Hey, can you sort those compounds up there by ED50, smallest first? Put the labels in the requested order and list them out.
OUTPUT: a, c, b
